assay: CCTE_Shafer_MEA_dev_mutual_information_norm: CCTE's Neural Network Formation Assay for Mutual Information Normalization, Shafer Lab (AID 2284091)
Activity calls are given as the source filed them. How the source made its calls: active means hit-call score of the fitted dose curve at least 0.9, where 1 is the maximum; inactive means score below 0.9.
Respond only with the outcome that fits, drawn from T = active, F = inactive

Task: Recorded test call requested for COC(=O)CCC(F)(F)C(F)(F)C(F)(F)C(F)(F)F
Result: F

Task: Recorded test call requested for C=CC(=O)OCC(F)(F)C(F)(F)C(F)(F)C(F)(F)COC(=O)C=C
Result: T

Task: Recorded test call requested for CC(C)(C)C(=O)CC(=O)C(F)(F)C(F)(F)C(F)(F)F
Result: F

Task: Recorded test call requested for CC(CCl)OP(=O)(OC(C)CCl)OC(C)CCl (stereo unspecified)
Result: F

Task: Recorded test call requested for O=C(O)C(F)(F)C(F)(F)C(F)(F)F
Result: F

Task: Recorded test call requested for O=C(O)C(F)(F)C(F)(F)C(F)F
Result: F

Task: Recorded test call requested for O=S(=O)(OCC(F)F)C(F)(F)F
Result: F

Task: Recorded test call requested for N=C(N)C(F)(F)C(F)(F)C(F)(F)C(F)(F)C(F)(F)C(F)(F)C(F)(F)F
Result: F

Task: Recorded test call requested for O=C(O)C(F)(F)C(F)(F)C(F)(F)C(F)(F)C(F)(F)C(F)(F)C(F)(F)C(F)(F)C(F)(F)C(F)F
Result: F

Task: Recorded test call requested for NC(=O)C(F)(F)C(F)(F)C(F)(F)C(F)(F)F
Result: F

Task: Recorded test call requested for OCC(F)(F)C(F)(F)C(F)(F)C(F)(F)C(F)(F)C(F)F
Result: F
